Attribute: viability, T/C
- System: 323965-272-R-J2-PDC complex spheroid viability
- protocol-notes: Anticancer human tumor 323965-272-R-J2-PDC patient-derived pancreatic carcinoma cell line growth inhibition [CLK]
- measurement-context: second compound 0.0316 µM; first compound 0.316 µM; stronger effect = lower value
measurement-label: viability, T/C (%)

{"columns": ["compound", "measurement-label", "units", "reading"],
 "data": [
  ["CC1(C)CCC(CN2CCN(c3ccc(C(=O)NS(=O)(=O)c4ccc(NCC5CCOCC5)c([N+](=O)[O-])c4)c(Oc4cnc5[nH]ccc5c4)c3)CC2)=C(c2ccc(Cl)cc2)C1 + CNC(=O)c1ccc(Nc2nc(OC3CCCC3)c3c(-c4ccc5nc(C)oc5c4)c[nH]c3n2)c(OC)c1", "viability, T/C", "%", 98.7],
  ["C#Cc1c(F)ccc2cc(O)cc(-c3ncc4c(N5CC6CCC(C5)N6)nc(OCC56CCCN5CC(F)C6)nc4c3F)c12 (stereo not given) + CNC(=O)c1ccc(Nc2nc(OC3CCCC3)c3c(-c4ccc5nc(C)oc5c4)c[nH]c3n2)c(OC)c1", "viability, T/C", "%", 98.8],
  ["COc1cccc2c1C(=O)c1c(O)c3c(c(O)c1C2=O)CC(O)(C(=O)CO)CC3OC1CC(N)C(O)C(C)O1 (stereo not given) + CN1CCN(c2cc(C(=O)Nc3cc4cc(-c5cnn(C)c5)ccc4cn3)ccn2)CC1", "viability, T/C", "%", 39.4],
  ["CC(CO)NC(=O)c1cc(-c2ccc(Cl)cc2)nn(-c2cnn(C)c2)c1=O (stereo not given) + CN1CCN(c2cc(C(=O)Nc3cc4cc(-c5cnn(C)c5)ccc4cn3)ccn2)CC1", "viability, T/C", "%", 103],
  ["CC(Nc1ccc2c(c1)OCCn1cc(N3C(=O)OCC3C(F)F)nc1-2)C(N)=O (stereo not given) + CNC(=O)c1ccc(Nc2nc(OC3CCCC3)c3c(-c4ccc5nc(C)oc5c4)c[nH]c3n2)c(OC)c1", "viability, T/C", "%", 80.4],
  ["CC(=O)O[C@H]1C(=O)[C@@]2(C)[C@H]([C@H](OC(=O)c3ccccc3)[C@]3(O)C[C@H](OC(=O)[C@H](O)[C@@H](NC(=O)c4ccccc4)c4ccccc4)C(C)=C1C3(C)C)[C@]1(OC(C)=O)CO[C@@H]1C[C@@H]2O + CN1CCN(c2cc(C(=O)Nc3cc4cc(-c5cnn(C)c5)ccc4cn3)ccn2)CC1", "viability, T/C", "%", 31.7],
  ["O=C(c1cc(Cc2n[nH]c(=O)c3ccccc23)ccc1F)N1CCN(C(=O)C2CC2)CC1 + CNC(=O)c1ccc(Nc2nc(OC3CCCC3)c3c(-c4ccc5nc(C)oc5c4)c[nH]c3n2)c(OC)c1", "viability, T/C", "%", 107],
  ["Nc1ccn(C2OC(CO)C(O)C2(F)F)c(=O)n1 (stereo not given) + CNC(=O)c1ccc(Nc2nc(OC3CCCC3)c3c(-c4ccc5nc(C)oc5c4)c[nH]c3n2)c(OC)c1", "viability, T/C", "%", 30.3],
  ["CCN1CCN(Cc2ccc(Nc3ncc(F)c(-c4cc(F)c5nc(C)n(C(C)C)c5c4)n3)nc2)CC1 + CN1CCN(c2cc(C(=O)Nc3cc4cc(-c5cnn(C)c5)ccc4cn3)ccn2)CC1", "viability, T/C", "%", 65.2],
  ["Nc1ccn(C2OC(CO)C(O)C2(F)F)c(=O)n1 (stereo not given) + CN1CCN(c2cc(C(=O)Nc3cc4cc(-c5cnn(C)c5)ccc4cn3)ccn2)CC1", "viability, T/C", "%", 33.9]
]}

* * *

- Tested on: 323965-272-R-J2-PDC complex spheroid viability
- protocol-notes: Anticancer human tumor 323965-272-R-J2-PDC cell line growth inhibition [CLK]; active = viability on the fitted dose curve at most 10% of control; inactive = the rest;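 further: spheroids exposed to agents for seven days before readout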
- measurement-context: second compound 3.16 µM; first compound 0.0316 µM
Labels: active, inactive

{"columns": ["compound", "qualitative-label"],
 "data": [
  ["CC(=O)O[C@H]1C(=O)[C@@]2(C)[C@H]([C@H](OC(=O)c3ccccc3)[C@]3(O)C[C@H](OC(=O)[C@H](O)[C@@H](NC(=O)c4ccccc4)c4ccccc4)C(C)=C1C3(C)C)[C@]1(OC(C)=O)CO[C@@H]1C[C@@H]2O + CN1CCN(c2cc(C(=O)Nc3cc4cc(-c5cnn(C)c5)ccc4cn3)ccn2)CC1", "active"],
  ["C=C(F)C(=O)N1CCN(c2nc(OCC3CCCN3C)nc3c2CCN(c2cccc4cccc(Cl)c24)C3)CC1CC#N (stereo not given) + CN1CCN(c2cc(C(=O)Nc3cc4cc(-c5cnn(C)c5)ccc4cn3)ccn2)CC1", "active"],
  ["CCc1c2c(nc3ccc(O)cc13)-c1cc3c(c(=O)n1C2)COC(=O)[C@]3(O)CC + CN1CCN(c2cc(C(=O)Nc3cc4cc(-c5cnn(C)c5)ccc4cn3)ccn2)CC1", "active"],
  ["Cn1ncnc1[C@H]1c2n[nH]c(=O)c3cc(F)cc(c23)N[C@@H]1c1ccc(F)cc1 + CN1CCN(c2cc(C(=O)Nc3cc4cc(-c5cnn(C)c5)ccc4cn3)ccn2)CC1", "active"],
  ["CC(CO)NC(=O)c1cc(-c2ccc(Cl)cc2)nn(-c2cnn(C)c2)c1=O (stereo not given) + CNC(=O)c1ccc(Nc2nc(OC3CCCC3)c3c(-c4ccc5nc(C)oc5c4)c[nH]c3n2)c(OC)c1", "inactive"]
]}

* * *

- Tested on: 323965-272-R-J2-PDC complex spheroid viability
- protocol-notes: Anticancer human tumor 323965-272-R-J2-PDC cell line growth inhibition [CLK]; active means viability on the fitted dose curve at most 10% of control; inactive means the rest;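 further: spheroids exposed to agents for seven days before readout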
- measurement-context: second compound 3.16 µM; first compound 0.1 µM
Labels: active, inactive

{"columns": ["compound", "qualitative-label"],
 "data": [
  ["COC1C=CCC(C)C(C)S(=O)(=O)NC(=O)c2ccc3c(c2)N(CC2CCC21)CC1(CCCc2cc(Cl)ccc21)CO3 (stereo not drawn) + CN1CCN(c2cc(C(=O)Nc3cc4cc(-c5cnn(C)c5)ccc4cn3)ccn2)CC1", "active"],
  ["O=c1[nH]cc(F)c(=O)[nH]1 + CNC(=O)c1ccc(Nc2nc(OC3CCCC3)c3c(-c4ccc5nc(C)oc5c4)c[nH]c3n2)c(OC)c1", "inactive"],
  ["C=C(F)C(=O)N1CCN(c2nc(OCC3CCCN3C)nc3c2CCN(c2cccc4cccc(Cl)c24)C3)CC1CC#N (stereo not drawn) + CNC(=O)c1ccc(Nc2nc(OC3CCCC3)c3c(-c4ccc5nc(C)oc5c4)c[nH]c3n2)c(OC)c1", "inactive"]
]}

* * *

Attribute: IC50
- System: 323965-272-R-J2-PDC complex spheroid viability
- protocol-notes: Anticancer human tumor 323965-272-R-J2-PDC cell line growth inhibition [CLK];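 further: spheroids exposed to agents for seven days before readout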
- measurement-context: curve of first compound; second compound 10 µM

{"columns": ["compound", "IC50"],
 "data": [
  ["COC1C=CCC(C)C(C)S(=O)(=O)NC(=O)c2ccc3c(c2)N(CC2CCC21)CC1(CCCc2cc(Cl)ccc21)CO3 (centres undefined) + CNC(=O)c1ccc(Nc2nc(OC3CCCC3)c3c(-c4ccc5nc(C)oc5c4)c[nH]c3n2)c(OC)c1", "53.1 nM"],
  ["CCN1CCN(Cc2ccc(Nc3ncc(F)c(-c4cc(F)c5nc(C)n(C(C)C)c5c4)n3)nc2)CC1 + CN1CCN(c2cc(C(=O)Nc3cc4cc(-c5cnn(C)c5)ccc4cn3)ccn2)CC1", "< 3.16 nM"],
  ["CCc1c2c(nc3ccc(O)cc13)-c1cc3c(c(=O)n1C2)COC(=O)[C@]3(O)CC + CN1CCN(c2cc(C(=O)Nc3cc4cc(-c5cnn(C)c5)ccc4cn3)ccn2)CC1", "< 3.16 nM"],
  ["COc1c(OCCCN2CCOCC2)ccc2c3n(c(=NC(=O)c4cnc(N)nc4)nc12)CCN3 + CNC(=O)c1ccc(Nc2nc(OC3CCCC3)c3c(-c4ccc5nc(C)oc5c4)c[nH]c3n2)c(OC)c1", "< 3.16 nM"],
  ["CCc1c2c(nc3ccc(O)cc13)-c1cc3c(c(=O)n1C2)COC(=O)[C@]3(O)CC + CNC(=O)c1ccc(Nc2nc(OC3CCCC3)c3c(-c4ccc5nc(C)oc5c4)c[nH]c3n2)c(OC)c1", "< 3.16 nM"],
  ["CCN1CCN(Cc2ccc(Nc3ncc(F)c(-c4cc(F)c5nc(C)n(C(C)C)c5c4)n3)nc2)CC1 + CNC(=O)c1ccc(Nc2nc(OC3CCCC3)c3c(-c4ccc5nc(C)oc5c4)c[nH]c3n2)c(OC)c1", "< 3.16 nM"],
  ["CCCS(=O)(=O)Nc1ccc(F)c(C(=O)c2c[nH]c3ncc(-c4ccc(Cl)cc4)cc23)c1F + CN1CCN(c2cc(C(=O)Nc3cc4cc(-c5cnn(C)c5)ccc4cn3)ccn2)CC1", "< 31.6 nM"],
  ["CC1(C)CCC(CN2CCN(c3ccc(C(=O)NS(=O)(=O)c4ccc(NCC5CCOCC5)c([N+](=O)[O-])c4)c(Oc4cnc5[nH]ccc5c4)c3)CC2)=C(c2ccc(Cl)cc2)C1 + CN1CCN(c2cc(C(=O)Nc3cc4cc(-c5cnn(C)c5)ccc4cn3)ccn2)CC1", "< 31.6 nM"],
  ["CC1COCCN1c1cc(C2(S(C)(=N)=O)CC2)nc(-c2ccnc3[nH]ccc23)n1 (centres undefined) + CNC(=O)c1ccc(Nc2nc(OC3CCCC3)c3c(-c4ccc5nc(C)oc5c4)c[nH]c3n2)c(OC)c1", "< 31.6 nM"],
  ["C=CC(=O)Nc1cc(Nc2nccc(-c3cn(C)c4ccccc34)n2)c(OC)cc1N(C)CCN(C)C + CNC(=O)c1ccc(Nc2nc(OC3CCCC3)c3c(-c4ccc5nc(C)oc5c4)c[nH]c3n2)c(OC)c1", "< 0.949 nM"],
  ["C#Cc1c(F)ccc2cc(O)cc(-c3ncc4c(N5CC6CCC(C5)N6)nc(OCC56CCCN5CC(F)C6)nc4c3F)c12 (centres undefined) + CNC(=O)c1ccc(Nc2nc(OC3CCCC3)c3c(-c4ccc5nc(C)oc5c4)c[nH]c3n2)c(OC)c1", "< 31.6 nM"],
  ["COc1ccc([C@@H](O)c2cc(-c3ncnc4cc(N5CCOCC5)ccc34)c(F)cc2Cl)nn1 + CNC(=O)c1ccc(Nc2nc(OC3CCCC3)c3c(-c4ccc5nc(C)oc5c4)c[nH]c3n2)c(OC)c1", "< 31.6 nM"],
  ["CC(C)CC(NC(=O)C(Cc1ccccc1)NC(=O)c1cnccn1)B(O)O (centres undefined) + CN1CCN(c2cc(C(=O)Nc3cc4cc(-c5cnn(C)c5)ccc4cn3)ccn2)CC1", "< 0.949 nM"],
  ["Cn1ncnc1[C@H]1c2n[nH]c(=O)c3cc(F)cc(c23)N[C@@H]1c1ccc(F)cc1 + CN1CCN(c2cc(C(=O)Nc3cc4cc(-c5cnn(C)c5)ccc4cn3)ccn2)CC1", "< 0.316 nM"],
  ["C=CC(=O)N1CCN(c2nc(=O)n(-c3c(C)ccnc3C(C)C)c3nc(-c4c(O)cccc4F)c(F)cc23)C(C)C1 (centres undefined) + CNC(=O)c1ccc(Nc2nc(OC3CCCC3)c3c(-c4ccc5nc(C)oc5c4)c[nH]c3n2)c(OC)c1", "< 31.6 nM"],
  ["C=C(F)C(=O)N1CCN(c2nc(OCC3CCCN3C)nc3c2CCN(c2cccc4cccc(Cl)c24)C3)CC1CC#N (centres undefined) + CNC(=O)c1ccc(Nc2nc(OC3CCCC3)c3c(-c4ccc5nc(C)oc5c4)c[nH]c3n2)c(OC)c1", "< 31.6 nM"],
  ["O=c1[nH]cc(F)c(=O)[nH]1 + CNC(=O)c1ccc(Nc2nc(OC3CCCC3)c3c(-c4ccc5nc(C)oc5c4)c[nH]c3n2)c(OC)c1", "< 31.6 nM"],
  ["CC(=O)O[C@H]1C(=O)[C@@]2(C)[C@H]([C@H](OC(=O)c3ccccc3)[C@]3(O)C[C@H](OC(=O)[C@H](O)[C@@H](NC(=O)c4ccccc4)c4ccccc4)C(C)=C1C3(C)C)[C@]1(OC(C)=O)CO[C@@H]1C[C@@H]2O + CN1CCN(c2cc(C(=O)Nc3cc4cc(-c5cnn(C)c5)ccc4cn3)ccn2)CC1", "< 31.6 nM"],
  ["CC(Nc1ccc2c(c1)OCCn1cc(N3C(=O)OCC3C(F)F)nc1-2)C(N)=O (centres undefined) + CNC(=O)c1ccc(Nc2nc(OC3CCCC3)c3c(-c4ccc5nc(C)oc5c4)c[nH]c3n2)c(OC)c1", "< 31.6 nM"]
]}

Data provenance is PubChem BioAssay AID2060619.
